- Tested on: panel of 140 standard cancer cell lines
- Experiment summary: ProliFiler-140 cancer cell line screen (CellTiterGlo, 72 h)
- Type: cell-based
- Measurement context: NCI-H2110 (Lung); listed as Dox; read-out: IC50 [M] (ProliFiler-140)
Assay endpoint: IC50 (M)

* COc1cccc2c1C(=O)c1c(O)c3c(c(O)c1C2=O)C[C@@](O)(C(=O)CO)C[C@@H]3O[C@H]1C[C@H](N)[C@H](O)[C@H](C)O1 [doxorubicin, reference compound] | 3.55e-08

----------
- Test system: panel of 140 standard cancer cell lines
- Experiment summary: ProliFiler-140 cancer cell line screen (CellTiterGlo, 72 h)
- Type: cell-based
- Measurement context: Homo sapiens, BXPC-3, read-out: IC50 [M] (ProliFiler-140), BxPC-3 (Pancreas)
- Experimental: Incubations were performed for 72 h before automated viability readout with CellTiterGlo (Figure 8). End of Figure S11 (part 5 of 5): ProliFiler-140 cancer cell line screening for cytotoxicity of the prodrugs. 8-data-point dose response curves from CellTiter-Glo® viability readout. ProliFiler-140 cell line panel part V
Assay endpoint: IC50

- COc1cc2cc(C(=O)N3C[C@@H](CCl)c4c3cc(OC(=O)N3CCN(C(=O)CCC(=O)N5CCN(C)CC5)[C@H]5CSSC[C@H]53)c3ccccc43)[nH]c2c(OC)c1OC [P-SS66C-CBI-TMI]: 4.64e-08 M

----------
- System: panel of 140 standard cancer cell lines
- Experiment summary: ProliFiler-140 cancer cell line screen (CellTiterGlo, 72 h)
- Assay type: cell-based
- Measurement context: K562 (Blood); listed as Dox; read-out: IC50 [M] (ProliFiler-140)
- Experimental: Incubations were performed for 72 h before automated viability readout with CellTiterGlo (Figure 8). End of Figure S11 (part 5 of 5): ProliFiler-140 cancer cell line screening for cytotoxicity of the prodrugs. 8-data-point dose response curves from CellTiter-Glo® viability readout. ProliFiler-140 cell line panel part V
Assay endpoint: IC50

- COc1cccc2c1C(=O)c1c(O)c3c(c(O)c1C2=O)C[C@@](O)(C(=O)CO)C[C@@H]3O[C@H]1C[C@H](N)[C@H](O)[C@H](C)O1 [doxorubicin, reference compound]: 4.42e-07 M

----------
- Test system: NCI-60 standardized human tumor cell line panel
- Experiment summary: cells
- Assay type: cell-based
- Measurement context: ACHN (RE) cell line; log10 reductive index vs P-CC60
Assay endpoint: NCI-60 screening: Log(RedIndex)

- COc1cc2cc(C(=O)N3CC(CCl)c4c3cc(OC(=O)N3CCN(C)C5CSSCC53)c3ccccc43)[nH]c2c(OC)c1OC (mixture of isomers) [Me-SS66C-CBI-TMI]: 1.24
- COc1cc2cc(C(=O)N3C[C@@H](CCl)c4c3cc(OC(=O)N(CCC(=O)N3CCN(C)CC3)[C@H]3CCSSC3)c3ccccc43)[nH]c2c(OC)c1OC [P-SS60-CBI-TMI]: 0.94
- COc1cc2cc(C(=O)N3C[C@@H](CCl)c4c3cc(OC(=O)N3CCN(C(=O)CCC(=O)N5CCN(C)CC5)[C@H]5CSSC[C@H]53)c3ccccc43)[nH]c2c(OC)c1OC [P-SS66C-CBI-TMI]: 1.07
- COc1cc2cc(C(=O)N3CC(CCl)c4c3cc(OC(=O)N3CCN(C)C5CSSCC53)c3ccccc43)[nH]c2c(OC)c1OC (mixture of isomers) [Me-SS66T-CBI-TMI]: 1.71
